# Tested on: Malme-3M
# assay-procedure: NCI tumour cell line growth inhibition, 48 h
Active and inactive are the calls of the source. Cut-off read from the data, not from the text of the source: active = GI50 up to about 1.1 µM and inactive = higher. Where a SMILES comes first, the peptide text is derived from it. [ ]: non-standard residue; d: D form. The star is where a group is joined. Phe(4-NO2) = N[CH](Cc1ccc([N+](=O)[O-])cc1)C(=O)O; Boc = CC(C)(C)OC(=O)*; OBn = c1ccc(CO*)cc1
Measured GI50 by item

Worked set:
molecule=Oc1[nH]c(Nc2ccc(F)c(Cl)c2)nc2ncnc1-2 measured_property=GI50 result="> 100 µM (inactive)"
molecule="CCC(C)C(=O)OC1C(=O)OC2CC3C(C)=CC(=O)C(O)C3(C)C3C4(O)OCC23C1C(C)C4O (centres undefined)" measured_property=GI50 result="< 0.0104 µM (active)"
molecule=C=C(Cl)c1c(OC)cccc1OCc1ccccc1 measured_property=GI50 result="> 100 µM (inactive)"

Attention now turns to another entry.
QUERY: Form field - read-out: GI50; system: Malme-3M; submitted item: COC(=O)CCC(NC(=O)OC(C)(C)C)C(=O)NC(Cc1ccc([N+](=O)[O-])cc1)C(=O)NCC(=O)OCc1ccccc1 (centres undefined) (Boc-Glu(OMe)-[Phe(4-NO2)]-Gly-OBn; configuration not given here)
RESULT: > 100 µM (inactive)

* * *

# System: LXFL 529
# assay-procedure: NCI tumour cell line growth inhibition, 48 h
Calls of active or inactive are those of the source. No stated cut-off is given here; in the data, active = GI50 up to about 1.1 µM and inactive = higher.
I would appreciate it if you answered using one of these outcomes: YES (active), NO (inactive)

For orientation, consider the following solved cases.
compound="O=C(CC(=O)C1CCOC1=O)C(=O)Nc1cccc(Cl)c1 (centres undefined)" category=NO
compound="COc1cc2c3c(c1OC)C1(C=CC(=O)C=C1)CC3N(C(=O)OC(C)(C)C(Cl)(Cl)Cl)CC2 (centres undefined)" category=NO
compound="COC1(OC)CCCCC2c3cccc(OC(C)=O)c3C21OC(C)=O (centres undefined)" category=NO
compound=NC(=S)N/N=C1\CCCC\C1=C/c1ccccc1 category=NO
compound=O=C(O)CSc1nnc(COc2ccccc2)n1-c1ccccc1 category=NO

QUERY: Hi team, can someone confirm the assay call for CC1(C)CCOC(Sc2ccccc2)C1 (centres undefined) ?
RESULT: NO

QUERY: Hi team, can someone confirm the assay call for CCN(CC)C(=S)S [DITIOCARB SODIUM] ?
RESULT: NO

QUERY: Hi team, can someone confirm the assay call for CC(=O)OCC1OC(N2C(=O)[C@@H](Oc3ccccc3)[C@H]2/C=C/c2ccccc2)C(OC(C)=O)C(OC(C)=O)C1OC(C)=O (some centres undefined) ?
RESULT: NO

QUERY: Hi team, can someone confirm the assay call for C=C1C(=O)O[C@@H]2C[C@@H](C)[C@@H]3C=CC(=O)[C@@]3(C)[C@@H](OC(=O)CC(=O)O[C@H]3[C@@H]4C(=C)C(=O)O[C@@H]4C[C@@H](C)[C@@H]4C=CC(=O)[C@]43C)[C@H]12 ?
RESULT: YES

* * *

# Test system: MCF7
# assay-procedure: NCI tumour cell line growth inhibition, 48 h
Active and inactive are the calls of the source. No stated cut-off is given here; in the data, active = GI50 up to about 1.1 µM and inactive = higher.
I would appreciate it if you answered using one of these outcomes: active, inactive

smiles_data=Cc1ccc(S(=O)(=O)NC2=NS(=O)(=O)c3cc(C)c(Cl)cc3S2)cc1 category=inactive
smiles_data=O=C(NCCN1CCCC1)c1cn2c(ccc3sc4ccccc4c(=O)c32)n1 category=inactive
smiles_data=COC(=O)C[C@H](CCSC)NC(=O)C[C@H](CCSC)NC(=O)C[C@H](CCSC)NC(=O)OC(C)(C)C category=inactive
smiles_data=COc1cc(/C=C2\NC(=O)N(/C=C3\C(=O)Oc4ccccc4C3=O)C2=O)ccc1O category=inactive

// next entry
QUERY: Hi team, can someone confirm the assay call for CC/C(=N/O)c1ccc(Br)s1 ?
RESULT: inactive

* * *

# Tested on: UO-31
# assay-procedure: NCI tumour cell line growth inhibition, 48 h
Active and inactive are the calls of the source. Cut-off read from the data, not from the text of the source: active = GI50 up to about 1.1 µM and inactive = higher.
measured-property: GI50

Worked set:
molecule="CCC(C)C(=O)OC1C(=O)OC2CC3C(C)=CC(=O)C(O)C3(C)C3C4(O)OCC23C1C(C)C4O (configuration not stated)" result="0.0324 µM (active)"
molecule="COC(=O)C1=C(C)C(=O)[C@]23C(CCCC[C@H]12)C(=O)[C@H](C(=O)OC)C3C (some centres not stated)" result="> 100 µM (inactive)"
molecule="OC1CCC(COC(c2ccccc2)(c2ccccc2)c2ccccc2)O1 (configuration not stated)" result="17.3 µM (inactive)"
molecule=C=CCc1c(O)c2ccccc2[nH]c1=O result="> 100 µM (inactive)"
molecule=O=C1C=C(NCCc2cc(Br)c(O)c(Br)c2)C(=O)c2[nH]cnc21 result="75 µM (inactive)"
molecule=O=C(c1ccco1)N(Cc1cccnc1)C(=S)N(Cc1cccnc1)C(=O)c1ccco1 result="15 µM (inactive)"

Attention now turns to another entry.
QUERY: // lookup GI50 for COc1ccc(OC)c(NC2=NCCO2)c1
RESULT: > 100 µM (inactive)

* * *

Measured GI50 by item
# Test system: A498
# assay-procedure: NCI tumour cell line growth inhibition, 48 h
Calls of active or inactive are those of the source. No stated cut-off is given here; in the data, active = GI50 up to about 1.1 µM and inactive = higher.

QUERY: Form field - read-out: GI50; system: A498; submitted item: O=C1c2ccccc2C(=O)N1CCCCCCNOCCCN1C(=O)c2ccccc2C1=O
RESULT: 21.6 µM (inactive)

QUERY: Form field - read-out: GI50; system: A498; submitted item: Cc1cccc(C)c1NC(=O)CCC(=O)NNc1nnc(C)n1N
RESULT: 53.3 µM (inactive)

QUERY: Form field - read-out: GI50; system: A498; submitted item: COC(=O)c1c/c(=N\NC(=O)CC(=O)Nc2ccccc2OC)c2ccccc2o1
RESULT: > 100 µM (inactive)

QUERY: Form field - read-out: GI50; system: A498; submitted item: CN(C)/C=N/c1nc2ncn(CCOC(=O)c3ccccc3)c2c(=O)[nH]1
RESULT: > 100 µM (inactive)

QUERY: Form field - read-out: GI50; system: A498; submitted item: CC12CCC[C@@](C)(C(=O)OC3OC(CO)C(O)C(O)C3O)[C@H]1CCC13CC4CC(OC4(CO)[C@H]1O)[C@@H]23 (stereo partly specified)
RESULT: > 100 µM (inactive)

QUERY: Form field - read-out: GI50; system: A498; submitted item: NC(=O)c1c2c(cc3c(=O)c4ccccc4[nH]c13)CCCC2
RESULT: > 100 µM (inactive)

* * *

# Tested on: A549
# assay-procedure: NCI tumour cell line growth inhibition, 48 h
The source made the active and inactive calls. No stated cut-off is given here; in the data, active = GI50 up to about 1.1 µM and inactive = higher.
measured-property: GI50

compound=O=C1C=C(NCCc2ccc(O)cc2)C(=O)C=C1NCCc1ccc(O)cc1 result="> 100 µM (inactive)"
compound="COC(=O)C(Cc1nc2ccccc2nc1O)C(NO)C(=O)Nc1c(Cl)cc([N+](=O)[O-])cc1Cl (stereo not drawn)" result="38.5 µM (inactive)"

Attention now turns to another entry.
QUERY: // lookup GI50 for CCOC(=O)[C@@H]1C2C(=C[C@H]3[C@H]1C(=O)N1CCCC[C@H]31)CCCN2C(=O)OCc1ccccc1 (stereo partly drawn)
RESULT: 36.1 µM (inactive)

* * *

# Test system: SK-MEL-5
# assay-procedure: NCI tumour cell line growth inhibition, 48 h
Calls of active or inactive are those of the source. No stated cut-off is given here; in the data, active = GI50 up to about 1.1 µM and inactive = higher.
I would appreciate it if you answered using one of these outcomes: active, inactive

For orientation, consider the following solved cases.
compound=CNC1=C(C)C(=O)C(O)=C([C@H](C)CCC=C(C)C)C1=O category=inactive
compound="CC(=O)NC(C=O)C(O[C@H](C)C(=O)NC(C)C(=O)NC(CCC(N)=O)C(=O)OCc1ccccc1)C(O)C(O)COC(=O)CCNc1c2ccccc2nc2cccc([N+](=O)[O-])c12 (stereo partly specified)" category=inactive
compound=COc1cc(/C=C2\NC(=O)N(/C=C3\C(=O)Oc4ccccc4C3=O)C2=O)ccc1O category=inactive

QUERY: Hi team, can someone confirm the assay call for Cc1nn(C(=O)c2ccc(Cl)cc2)c2c1C(/C=C/c1ccccc1)SC(=N)N2 (stereo unspecified) ?
RESULT: inactive

QUERY: Hi team, can someone confirm the assay call for OCC(O)C(Cl)CCl (stereo unspecified) ?
RESULT: inactive

QUERY: Hi team, can someone confirm the assay call for COC(=O)c1c(C)nc(C)c(N=O)c1-c1ccccc1C(F)(F)F ?
RESULT: inactive

* * *

Measured GI50 by item
# Tested on: KM12
# assay-procedure: NCI tumour cell line growth inhibition, 48 h
Activity calls are given as the source filed them. No stated cut-off is given here; in the data, active = GI50 up to about 1.1 µM and inactive = higher.

Worked set:
compound=CC1(C)CC(=O)C(=[N+]=[N-])C(=O)C1 target_of_assay=KM12 result="> 100 µM (inactive)"
compound=O=C(Nc1ccn(CCO)c(=O)n1)c1ccccc1 target_of_assay=KM12 result="> 100 µM (inactive)"
compound=O=C(O)CSc1nnc(COc2ccccc2)n1-c1ccccc1 target_of_assay=KM12 result="> 100 µM (inactive)"
compound=Cn1c(=O)c2c(O)cc(N)nc2n(C)c1=O target_of_assay=KM12 result="> 100 µM (inactive)"
compound=COc1ccc(-c2c(C#N)c(-c3ccccc3)n(NS(=O)(=O)c3ccccc3)c(=O)c2C#N)cc1 target_of_assay=KM12 result="> 100 µM (inactive)"
compound=C=C(Cl)c1c(OC)cccc1OCc1ccccc1 target_of_assay=KM12 result="54.2 µM (inactive)"

QUERY: // lookup GI50 for O=C1CC(c2ccc(Cl)cc2)=Nc2ccccc2N1
RESULT: > 100 µM (inactive)

QUERY: // lookup GI50 for COCC(O)Cn1ccnc1[N+](=O)[O-] (centres undefined) [MISONIDAZOLE]
RESULT: > 100 µM (inactive)

QUERY: // lookup GI50 for COc1ccccc1Nc1nc(N)nc(N)c1N
RESULT: > 100 µM (inactive)

QUERY: // lookup GI50 for COC(=O)c1ccc(/C=C/C2=CC(=O)C=CC2=O)cc1
RESULT: 14.4 µM (inactive)

QUERY: // lookup GI50 for CN1C(=O)CC(CC(=O)C2CCCCC2=O)CC1=O (centres undefined)
RESULT: > 100 µM (inactive)
